test system: α7 integrin (LacZ reporter in α7βgal+/− myoblasts); assay: Myoblast α7+/LacZ integrin FDG assay (Burkin assay in myoblasts, 96-well); type: cell-based, mouse; details: 20 uM; α7+/LacZ myoblasts, 96-well
Short version: Burkin Assay in Myoblasts, signal relative to DMSO at least 1 is 1, less is 0.

{"Compound": "O=C(NCc1ccccc1)C(c1c(F)cccc1Cl)N(C(=O)c1csnn1)C1CC1 (stereo not drawn) [MLS001221908-01]", "Class name": 1}

Q: Given the entry COCCSc1ccccc1C(=O)Nc1cc(C)cc(C)c1 [MLS000675441-01] , answer whether its Burkin Assay in Myoblasts, signal relative to DMSO meets or surpasses 1.
Result: 0

Q: Please tell me: is the compound CC(=O)Nc1ccc(NC(=O)C/C(C)=N/NC(=O)COc2cc(C)c(Br)cc2Br)cc1 [MLS000912562-01] at or over 1 in terms of Burkin Assay in Myoblasts, signal relative to DMSO?
Result: 0

Q: Tell me whether Burkin Assay in Myoblasts, signal relative to DMSO is at least 1 here: COc1ccc(CNC(=O)COC(=O)CCc2c[nH]c3ccccc23)cc1 [MLS001033202-01]
Result: 0

Q: State whether the measured Burkin Assay in Myoblasts, signal relative to DMSO reaches 1, counting equality as reaching it, for COc1ccc2oc(C[S+]([O-])c3ccccc3)c(C(=O)O)c2c1 (stereo not drawn) [MLS001208858-01]
Result: 0

Q: Reported Burkin Assay in Myoblasts, signal relative to DMSO reaches at least 1 for CC(C)(C)c1ccc(C(=O)OCC(=O)Nc2sc3c(c2C#N)CCC3)cc1 [MLS000392555-01] ?
Result: 1

Q: Quick check, Burkin Assay in Myoblasts, signal relative to DMSO >= 1? O=C(O)c1cc(N=Cc2c(O)c3ccccc3oc2=O)ccc1O [MLS001216260-01]
Result: 0

Q: Entry COC(=O)Cn1c(=O)c2c(nc3n2CC(C)CN3Cc2ccccc2)n(C)c1=O (stereo not drawn) [MLS001166758-01] : is its Burkin Assay in Myoblasts, signal relative to DMSO no less than 1?
Result: 0

Q: Does Burkin Assay in Myoblasts, signal relative to DMSO meet or surpass 1 for COc1ccc(NC(=O)c2cccc(N3C(=O)c4ccc(C(=O)Nc5ccc(OC)c(O)c5)cc4C3=O)c2)cc1O [MLS001124732-01] ?
Result: 0

====

test system: β-galactosidase in CMV-LacZ C2C12 myotubes; test: CMV-LacZ secondary screen in C2C12 myotubes (β-Gal stabilizing assay); type: cell-based, mouse; details: 5 uM; C2C12 CMV-LacZ myotubes; fold relative to DMSO
We use 1 as the dividing line for CMV-LACZ in Myotubes, signal relative to DMSO: on or above the line is Condition met, below is Condition not met.

Examples with answers:
{"Molecule": "O=C(O)c1cc(N=Cc2c(O)c3ccccc3oc2=O)ccc1O [MLS001216260-01]", "Experimental target": "β-galactosidase in CMV-LacZ C2C12 myotubes", "Class name": "Condition not met"}
{"Molecule": "Cc1cccc(NC(=O)c2cc3ccccc3oc2=O)c1 [MLS001209245-01]", "Experimental target": "β-galactosidase in CMV-LacZ C2C12 myotubes", "Class name": "Condition not met"}
{"Molecule": "COc1ccc(S(=O)(=O)N2CCCCCC2)cc1C(=O)N1CCN(c2ccccc2O)CC1 [MLS001150751-01]", "Experimental target": "β-galactosidase in CMV-LacZ C2C12 myotubes", "Class name": "Condition not met"}
{"Molecule": "CCCCN1CC(=O)N2Cc3[nH]c4ccccc4c3C[C@H]2C1=O [MLS001165424-01]", "Experimental target": "β-galactosidase in CMV-LacZ C2C12 myotubes", "Class name": "Condition met"}
{"Molecule": "O=C(Nc1ccc(Oc2cccnc2)cc1)c1ccccc1Cl [MLS000574647-01]", "Experimental target": "β-galactosidase in CMV-LacZ C2C12 myotubes", "Class name": "Condition not met"}
{"Molecule": "Cc1cc([N+](=O)[O-])ccc1NC(=O)C(C)N1CCN(c2ccccn2)CC1 (stereo not drawn) [MLS000764729-01]", "Experimental target": "β-galactosidase in CMV-LacZ C2C12 myotubes", "Class name": "Condition met"}

Consider the additional molecule presented here.
Q: Exam item: decide whether the reported CMV-LACZ in Myotubes, signal relative to DMSO for CC(=O)Nc1ccc(-n2c(C)nc(=O)c(-c3ccccc3)c2C)cc1 [MLS000078709-01] is at least 1.
Result: Condition not met

====

Entries and their CMV-LACZ in Myoblasts (β-galactosidase activity relative to DMSO) values follow.
system: β-galactosidase in CMV-LacZ C2C12 myoblasts; experiment: CMV-LacZ secondary screen in C2C12 myoblasts (β-Gal stabilizing assay); type: cell-based, mouse; settings: 40 uM; CMV-LacZ C2C12 myoblasts
Provide a numeric answer; units are not to be included.

{"Compound": "CC(C)Oc1cccc(C(=O)Nc2ccc(CN3CCOCC3)cc2)c1", "Numeric result": 1.0993}
{"Compound": "Cc1nnc(-c2ccc(N3CCOCC3)c([N+](=O)[O-])c2)o1", "Numeric result": 1.0330}
{"Compound": "Cc1cccc(NCC(=O)N/N=C\\c2ccccn2)c1", "Numeric result": 0.9063}
{"Compound": "CC(=O)C1=C(C)Nc2ncnn2C1c1ccc(C)cc1 (stereo not drawn)", "Numeric result": 1.1267}
{"Compound": "CC(C)(C)c1ccc(C(=O)OCC(=O)Nc2sc3c(c2C#N)CCC3)cc1", "Numeric result": 1.2007}
{"Compound": "Br.COc1ccc(C(=O)CN2CCCCC2)cc1", "Numeric result": 0.9933}
{"Compound": "Cn1c(-c2ccccc2)cc2ccccc21", "Numeric result": 1.1432}
{"Compound": "CC1CCCCC1NC(=O)CSc1nnc(COc2ccc(Cl)cc2)o1 (stereo not drawn)", "Numeric result": 0.5522}

Q: What measured CMV-LACZ in Myoblasts (β-galactosidase activity relative to DMSO) goes with CC(C)c1ccc(NC(=O)CN2C(=O)c3ccccc3S2(=O)=O)cc1 ?
Result: 0.8800

Q: So what's the measured CMV-LACZ in Myoblasts (β-galactosidase activity relative to DMSO) for this one? CC(C)(C)NC(=O)NC(=O)CN1CCN(Cc2ccccc2)CC1
Result: 0.7646

Q: Which CMV-LACZ in Myoblasts (β-galactosidase activity relative to DMSO) is reported for this compound? CCC(C)n1[nH]c(=O)cc1N (stereo not drawn)
Result: 0.9000

Q: // CMV-LACZ in Myoblasts (β-galactosidase activity relative to DMSO) lookup, key: CCCCN(CC)Cc1ccc(CNC(=S)Nc2ccccc2F)o1
Result: 1.0619

Q: Tell me the measured CMV-LACZ in Myoblasts (β-galactosidase activity relative to DMSO) of Cc1cccc2c(N=Nc3ccc(S(=O)(=O)Nc4ccc(Cl)cc4)cc3[N+](=O)[O-])c(O)[nH]c12 , please.
Result: 0.4467

Q: Given N/C(=N\OC(=O)c1cccc(C(F)(F)F)c1)c1cnccn1 , state its recorded CMV-LACZ in Myoblasts (β-galactosidase activity relative to DMSO).
Result: 0.8704

Q: Could you tell me which CMV-LACZ in Myoblasts (β-galactosidase activity relative to DMSO) is on file for COc1cc(C=O)ccc1OCC(=O)Nc1ccc2c(c1)OCO2 ?
Result: 0.7333

Q: Need CMV-LACZ in Myoblasts (β-galactosidase activity relative to DMSO), item O=C(NCc1ccccc1)C(c1c(F)cccc1Cl)N(C(=O)c1csnn1)C1CC1 (stereo not drawn)
Result: 0.6789

Q: // lookup CMV-LACZ in Myoblasts (β-galactosidase activity relative to DMSO) for COc1cccc(C(=O)COc2ccc3ccc(=O)oc3c2)c1
Result: 1.1578

Q: Which CMV-LACZ in Myoblasts (β-galactosidase activity relative to DMSO) is reported for this compound? CCc1c(C)sc(NC(=O)c2ccco2)c1C#N
Result: 0.8907

Q: Any idea what CMV-LACZ in Myoblasts (β-galactosidase activity relative to DMSO) was measured for CC(C)CN(C(=O)c1cccc(Cl)c1)c1c(N)n(Cc2ccccc2)c(=O)[nH]c1=O ?
Result: 1.4715

Q: Bench note: what CMV-LACZ in Myoblasts (β-galactosidase activity relative to DMSO) did OC(c1nc2ccc(F)cc2[nH]1)C(O)c1nc2ccc(F)cc2[nH]1 (stereo not drawn) show?
Result: 1.1615

====

tested on: β-galactosidase in CMV-LacZ C2C12 myotubes; assay: CMV-LacZ secondary screen in C2C12 myotubes (β-Gal stabilizing assay); assay type: cell-based, mouse; conditions: 10 uM; C2C12 CMV-LacZ myotubes; fold relative to DMSO
Value kind: CMV-LACZ in Myotubes, signal relative to DMSO

Solved entries (count: 2):
{"Compound": "COc1ccc(Cl)cc1NC(=O)c1cc(-c2cc(C)ccc2O)n[nH]1", "Result": 1.0467}
{"Compound": "O=C(c1ccccc1)N1CCN(S(=O)(=O)c2cccs2)CC1", "Result": 1.1317}

Q: Name the reported CMV-LACZ in Myotubes, signal relative to DMSO value associated with the compound Cc1cccc(C)c1NCC(=O)N1CCN(Cc2ccccc2)CC1.Cl
Result: 0.9388

Q: Give its CMV-LACZ in Myotubes, signal relative to DMSO value. Item: COc1cc(Cl)cc(CN2CCC(CCC(=O)NC3CC3)CC2)c1OC
Result: 1.084

Q: Which measured CMV-LACZ in Myotubes, signal relative to DMSO value corresponds to Cc1ccc2c(c1)/C(=C/c1ccco1)C(=O)N2 ?
Result: 1.0939
